TARGET_DESC: HLA-A*31:01
METHOD_SUMMARY: IEDB peptide-MHC binding, purified MHC/competitive/radioactivity; filed as Kd, often an IC50 or EC50 that approximates it; bounds were set here for any values at or beyond the usual limits of such assays
PARTICULARS: source organism: Dengue virus 2 Peru/IQT2913/1996
pKd: −log10 of the molar value.
READOUT_TYPE: pKd

In [3]: df
Out[3]:
   sequence_content  readout_number
0        FVCKHSMVDR            6.93

----------
TARGET_DESC: HLA-A*32:01
METHOD_SUMMARY: IEDB peptide-MHC binding, purified MHC/competitive/radioactivity; filed as Kd, often an IC50 or EC50 that approximates it; bounds were set here for any values at or beyond the usual limits of such assays
PARTICULARS: source organism: Mammarenavirus choriomeningitidis
READOUT_TYPE: Kd (µM)

   sequence_content  readout_number
0         VTERIFREY            12.9

----------
TARGET_DESC: HLA-A*02:01
METHOD_SUMMARY: IEDB peptide-MHC binding, purified MHC/competitive/fluorescence; bounds were set here for any values at or beyond the usual limits of such assays
PARTICULARS: source organism: Zaire ebolavirus
pIC50: −log10 of the molar value.
Measured pIC50, listed per entry.
READOUT_TYPE: pIC50

    sequence_content  target_desc  result
 0         FRFEVKKRD  HLA-A*02:01  ≤ 3.13
 1         IIHDFVDKT  HLA-A*02:01    4.85
 2         VQRQIQVHA  HLA-A*02:01    4.34
 3         ALSSLAKHG  HLA-A*02:01  ≤ 4.04
 4         YKLFLESGA  HLA-A*02:01  ≤ 3.68
 5         LESGAVKYL  HLA-A*02:01  ≤ 3.65
 6         RFEVKKRDG  HLA-A*02:01  ≤ 3.25
 7         RVIPVYQVN  HLA-A*02:01  ≤ 4.06
 8         KFLLIHQGM  HLA-A*02:01  ≤ 3.82
 9         GSYGEYQSY  HLA-A*02:01  ≤ 3.81
10         QQTNAMVTL  HLA-A*02:01    4.41
11         VHSQGREAA  HLA-A*02:01    4.39
12         RTRREAIVN  HLA-A*02:01  ≤ 3.93
13         VAGLITGGR  HLA-A*02:01  ≤ 3.18
14         FSILNRKAI  HLA-A*02:01  ≤ 3.63
15         IRSEELSFT  HLA-A*02:01  ≤ 2.62
16         VATAHGSTL  HLA-A*02:01  ≤ 3.87
17         GTNETEYLF  HLA-A*02:01    4.68
18         VRQRVIPVY  HLA-A*02:01  ≤ 3.28
19         TTAAGPPKA  HLA-A*02:01    4.93
20         PLGVIHNST  HLA-A*02:01  ≤ 3.92
21         GMHMVAGHD  HLA-A*02:01    4.17

----------
TARGET_DESC: HLA-A*31:01
METHOD_SUMMARY: IEDB peptide-MHC binding, purified MHC/competitive/fluorescence; filed as Kd, often an IC50 or EC50 that approximates it; bounds were set here for any values at or beyond the usual limits of such assays
PARTICULARS: source organism: Influenza A virus (A/Fort Monmouth/1/1947-mouse adapted(H1N1))
READOUT_TYPE: Kd (nM)

In [3]: df
Out[3]:
   sequence_content  readout_number
0         YMFESKSMK            21.2

----------
TARGET_DESC: HLA-A*31:01
METHOD_SUMMARY: IEDB peptide-MHC binding, purified MHC/direct/fluorescence; filed as Kd, often an IC50 or EC50 that approximates it; bounds were set here for any values at or beyond the usual limits of such assays
PARTICULARS: source organism: Yersinia pestis
READOUT_TYPE: Kd

>>> print(df.to_string())
   sequence_content   result
0         YGLGSTPLY  ≥ 20 µM

----------
Kd reference
TARGET_DESC: HLA-B*15:01
METHOD_SUMMARY: IEDB peptide-MHC binding, purified MHC/competitive/fluorescence; filed as Kd, often an IC50 or EC50 that approximates it; bounds were set here for any values at or beyond the usual limits of such assays
PARTICULARS: source organism: Yersinia pestis Nepal516
READOUT_TYPE: Kd (nM)

>>> df
   sequence_content  target_desc  inequality_symbol  readout_number
0         MPFAWQFGF  HLA-B*15:01                  ≥           20000
1         HLIQNPNPF  HLA-B*15:01                  =            30.8
2         AQRELFFTL  HLA-B*15:01                  =             113
3         LPFLKSLAI  HLA-B*15:01                  ≥           20000

----------
TARGET_DESC: HLA-A*02:06
METHOD_SUMMARY: IEDB peptide-MHC binding, purified MHC/competitive/radioactivity; filed as Kd, often an IC50 or EC50 that approximates it; bounds were set here for any values at or beyond the usual limits of such assays
PARTICULARS: source organism: Mammarenavirus whitewaterense
pKd: −log10 of the molar value.
READOUT_TYPE: pKd

In [3]: df
Out[3]:
   sequence_content  readout_type  readout_number
0         GLLQFIVFL           pKd            7.91

----------
TARGET_DESC: HLA-B*46:01
METHOD_SUMMARY: IEDB peptide-MHC binding, purified MHC/direct/fluorescence; filed as Kd, often an IC50 or EC50 that approximates it; bounds were set here for any values at or beyond the usual limits of such assays
PARTICULARS: source organism: Yersinia pestis
pKd: −log10 of the molar value.
READOUT_TYPE: pKd

In [3]: df
Out[3]:
   sequence_content  target_desc  readout_type  result
0         QWSPGPGRL  HLA-B*46:01           pKd  ≤ 4.70

----------
TARGET_DESC: HLA-C*15:02
METHOD_SUMMARY: IEDB peptide-MHC binding, purified MHC/direct/fluorescence; filed as Kd, often an IC50 or EC50 that approximates it; bounds were set here for any values at or beyond the usual limits of such assays
PARTICULARS: source organism: Giardia lamblia ATCC 50803
pKd: −log10 of the molar value.
READOUT_TYPE: pKd

   sequence_content  target_desc  readout_number
0         YLYLRPYAL  HLA-C*15:02            5.52

----------
TARGET_DESC: HLA-A*02:12
METHOD_SUMMARY: IEDB peptide-MHC binding, purified MHC/direct/fluorescence; filed as Kd, often an IC50 or EC50 that approximates it; bounds were set here for any values at or beyond the usual limits of such assays
PARTICULARS: source organism: Vibrio vulnificus CMCP6
pKd: −log10 of the molar value.
READOUT_TYPE: pKd

In [3]: df
Out[3]:
   sequence_content  target_desc  result
0         MPIAAAIGT  HLA-A*02:12  ≤ 4.70

----------
TARGET_DESC: HLA-A*02:12
METHOD_SUMMARY: IEDB peptide-MHC binding, purified MHC/direct/fluorescence; filed as Kd, often an IC50 or EC50 that approximates it; bounds were set here for any values at or beyond the usual limits of such assays
PARTICULARS: source organism: Orthohantavirus andesense
READOUT_TYPE: Kd

>>> print(df.to_string())
   sequence_content   result
0         VWKQLFPEL  ≥ 20 µM

----------
TARGET_DESC: HLA-A*26:01
METHOD_SUMMARY: IEDB peptide-MHC binding, purified MHC/competitive/radioactivity; filed as Kd, often an IC50 or EC50 that approximates it; bounds were set here for any values at or beyond the usual limits of such assays
PARTICULARS: source organism: Lassa virus Josiah
pKd: −log10 of the molar value.
READOUT_TYPE: pKd

   sequence_content  readout_type  readout_number
0         LISIFLHLV           pKd            4.99

----------
TARGET_DESC: HLA-A*30:02
METHOD_SUMMARY: IEDB peptide-MHC binding, purified MHC/competitive/radioactivity; filed as Kd, often an IC50 or EC50 that approximates it; bounds were set here for any values at or beyond the usual limits of such assays
PARTICULARS: source organism: SARS coronavirus Tor2
Rule: measured Kd below 60 nM gets T; anything equal to or greater than 60 nM gets F.

>>> print(df.to_string())
   sequence_content  answer_label
0         DTVWEVQGY             F
1        EMVMCGGSLY             T
2         VYIGDPAQL             F
3         DEEPMELDY             F
4        GYLKPTTFML             F
5         LYEQVVMDY             F
6         TSQKSIVAY             T
7         EYADVFHLY             T
8        QMYKTPTLKY             T
9         DHEFVDEFY             F
